Origin of measurements: the RNAGym collection of RNA variant scans (doi:10.7554/elife.80360)

B1: HDV Ribozyme (parent)
chain: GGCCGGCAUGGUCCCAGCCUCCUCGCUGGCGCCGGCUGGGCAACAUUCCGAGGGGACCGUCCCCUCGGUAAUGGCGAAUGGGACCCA

# Variants of: B1
# ASSAY_REMARKS: self-cleavage, relative activity (ratio to wild type); higher = more cleavage; co-transcriptional
y means recorded self-cleavage is 0.1 or above; n means it is below 0.1.

# MUTANT_NAME, LABEL
data = [
    ("G38A A70U", "y"),
    ("C24A G28A", "y"),
    ("A56G G73A", "y"),
    ("C24A G68A", "y"),
    ("G11U U12G", "y"),
]

In: Is self-cleavage for C41A A83G at or above 0.1?
Out: y

In: hey, is self-cleavage for this one >= 0.1? G50C U60A
Out: y

In: Check if self-cleavage >= 0.1 (inclusive). Item: C24G U69C
Out: n

In: Determine whether this variant has self-cleavage no lower than 0.1: A16U C57U
Out: y

In: Given C30U U46A , state whether its self-cleavage is at least 0.1.
Out: y
